# assaySystem: large ribosomal subunits of D. radiodurans
# method: Inhibition of peptidyl transferase (puromycin) reaction, isolated large subunits
# setupConditions: FIG. 5B, read-out: IC50, inhibition of puromycin reaction (peptide bond formation)
measurementKind: IC50 (µM)
Numeric only. Scale: µM

Tested on large ribosomal subunits of D. radiodurans, the item CC(=O)C(=O)N[C@@H]1/C=C(C)/C=C/[C@@H](O)C/C=C(C)/C=C/[C@@H](O)C[C@H]2OC(=O)[C@]1(C)C(=O)[C@@H]2C [LC, Lankacidin C] showed IC50 equal to 10

====

# assaySystem: D. radiodurans 50S subunits
# method: Competition with 14C-ERY for binding to 50S subunits
# setupConditions: 0.1 μM 50S, 0.1 μM 14C-erythromycin, FIG. 5C; read-out: IC50, displacement of 14C-ERY from D50S
measurementKind: pIC50
// pIC50 here means minus log10 of the molar concentration (mol/L)

Entry CC(=O)C(=O)N[C@@H]1/C=C(C)/C=C/[C@@H](O)C/C=C(C)/C=C/[C@@H](O)C[C@H]2OC(=O)[C@]1(C)C(=O)[C@@H]2C [LC, Lankacidin C] — recorded pIC50 = 6.45
